- Assay System: T1, human insulin-like growth factor binding protein 4 (IBP4) (human, UniProt P22692 22-258)
- T1 construct: also called IBP4 protein; IGFBP4
- T1 sequence: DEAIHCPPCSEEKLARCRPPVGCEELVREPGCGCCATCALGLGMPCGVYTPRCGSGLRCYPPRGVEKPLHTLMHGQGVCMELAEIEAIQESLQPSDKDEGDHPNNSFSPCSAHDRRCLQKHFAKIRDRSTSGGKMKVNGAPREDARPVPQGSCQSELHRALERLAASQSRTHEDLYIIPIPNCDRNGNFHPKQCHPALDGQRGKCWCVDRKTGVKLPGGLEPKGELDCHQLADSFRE
- Assay Method Text: AC-MS, mAb on M-PVA beads, QC2 serum, round 2 (beads reused)
Parameter Measured: ave RR

• anti-IBP4 antibody 1H9.B6 (antibody, mouse IgG1, kappa, V domains shown, Mouse hybridoma mAb raised against FL IBP4; also called IBP4-1H9.B6) VH: EVQLQQSGPELVKPGASVKISCKTSGYTFTDYYMNWVKQSHGKSLEWIGDINPNNGGAGYNQKFKGKATLTVDKSSSTAYMELRSLTSEDSAVYYCARWGWDRYFDYWGQGTTLTVSS VL: DIVMTQSQKFMSTSVGDRVSVTCKASQNVGIDVAWYQQKPGQSPKALIYSASYRSSGVPDRFTGSGSGTDFTLTINNVQSEDLAEYFCQQYNSYPLAFGSGTKLEIKR = 0.607
• anti-IBP4 antibody 5C11.A7 (antibody, mouse IgG1, kappa, V domains shown, Mouse hybridoma mAb raised against FL IBP4; also called IBP4-5C11.A7) VH: QVQLQQSGAELVRPGASVTLSCKASGYTFTDYEMHWVRQTPVHGLEWIGAIDTETGGPAYNQKFKGKAILTADKSSSTAYMELRSLTSEDSAVYFCTRARGSRSVYYFDNWGQGTTLTVSS VL: DIVMTQSQKFMSTSVGDRVSVTCKASQNVGTNVAWYQQKPGHSPKVLIYSASYRHSGVPDRFTGSGSGTDFTLTIGNVQSEDLADYFCQQYDTYPLTFGSGTKLEIKR = 0.609
• anti-IBP4 antibody 3D4.E9 (antibody, mouse IgG2b, kappa, V domains shown, Mouse hybridoma mAb raised against FL IBP4; also called IBP4-3D4.E9) VH: QVQLQQSGAELVRPGASVTLSCKASGYTFTDYEMHWVKQTPVHGLEWIGAIDPETGGAAYNQKFKGKAILTADKSSSTAYMELRSLTSEDSAVYYCTRARGSSSVYYFDYWGQGTTLTVSS VL: DIVMTQSQKFMSTSVGDRVSVTCKASQNVGTNVAWYQQKPGQSPKALIYSTSYRYSGVPDRFTGSRSGTDFILTISNVQSEDLAEYFCQQYDSYPLTFGSGTKLEIKR = 0.468
• anti-IBP4 antibody 7G11.H4 (antibody, mouse IgG1, kappa, V domains shown, Mouse hybridoma mAb raised against FL IBP4; also called IBP4-7G11.H4) VH: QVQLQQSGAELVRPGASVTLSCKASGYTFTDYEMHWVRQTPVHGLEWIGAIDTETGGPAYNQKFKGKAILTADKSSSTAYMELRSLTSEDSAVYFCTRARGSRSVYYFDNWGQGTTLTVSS VL: DIVMTQSQKFMSTSVGDRVSVTCKASQNVDTNIAWYQQKPGHSPKALIYSASYRYSGVPDRFTGSGSGTDFTLTIGNVQSEDLADYFCQQYDTYPLTFGSGTKLEIKR = 0.56

src = patent US20250101096A1
